The following compounds are listed with their measured Plant response rating, Kochia values.
# Test system: kochia
# ASSAY INFO: Test C postemergence
# Assay type: in vivo, Kochia scoparia
# EXPERIMENTAL CONTEXT: 125 g ai/ha, postemergence; visual rating, scale 0 to 100 (0 no effect, 100 complete control)
# Source text: […]
Reply: number alone, nothing else.

Noted for Clc1cnc(Oc2cccc(Cl)c2-n2cc(Cl)cn2)nc1 : its Plant response rating, Kochia reads 95

Short answer for FC(F)c1cnn(-c2c(Br)cccc2Oc2ncc(Cl)cn2)c1 : Plant response rating, Kochia was 98

Reported Plant response rating, Kochia of Clc1cnc(Oc2cccc(Br)c2-n2cc(Cl)cn2)nc1 : 95

Field: next compound
The value of Plant response rating, Kochia measured for the compound Fc1cnc(Oc2ccccc2-n2cc(C(F)F)cn2)nc1 turned out to be 85

====

# System: chickweed
# ASSAY INFO: Test C postemergence
# Assay type: in vivo, Stellaria media
# EXPERIMENTAL CONTEXT: Postemergence, 62 g ai/ha; scale 0 to 100 (0 no effect, 100 complete control)
READOUT KIND: Plant response rating, Chickweed
Just the number, please, no unit after it.

Worked examples, 4 compounds total:
Recorded Plant response rating, Chickweed for Cc1cnc(Oc2cccc(C#N)c2-n2cc(C#N)cn2)nc1 on chickweed was 15

// Plant response rating, Chickweed (chickweed) for N#Cc1cccc(Oc2ncc(Cl)cn2)c1-n1cc(OC(F)F)cn1 = 80

Result for N#Cc1cccc(Oc2ncc(Br)cn2)c1-n1cc(Br)cn1 , tested on chickweed, Plant response rating, Chickweed: 50

Param item: FCc1cn(-c2ccccc2Oc2ncc(Cl)cn2)nn1 ; param system: chickweed; output Plant response rating, Chickweed: 50

Here is the next item to consider.
For the compound FC(F)Oc1cnn(-c2ccccc2Oc2ncc(Cl)cn2)c1 , the measured Plant response rating, Chickweed on chickweed was 75

====

# System: pigweed
# ASSAY INFO: Test A postemergence
# Assay type: in vivo, Amaranthus retroflexus
# EXPERIMENTAL CONTEXT: 500 g ai/ha, 0 to 100 scale where 0 is no effect and 100 is complete control
READOUT KIND: Plant response rating, Pigweed
Respond numerically, and do not add a unit to the figure.

Below, 3 compounds whose answers are already recorded.
Sure, the documented Plant response rating, Pigweed for O=Cc1cccc(Oc2ncc(I)cn2)c1-n1cc(Br)cn1 is 100

The compound O=Cc1cccc(Oc2ncc(Br)cn2)c1-n1cc(Br)cn1 showed Plant response rating, Pigweed equal to 60

For reference, reported Plant response rating, Pigweed for Fc1cc(Oc2ncc(Cl)cn2)c(-n2cc(Br)cn2)cc1F stands at 100

Attention now shifts to the item below.
// Plant response rating, Pigweed value for N#Cc1cnn(-c2c(Oc3ncc(F)cn3)cccc2C(F)F)c1 : 100

====

Property: Galium plant response rating; scope: individual compounds
# System: galium
# ASSAY INFO: Test C postemergence
# Assay type: in vivo, Galium aparine
# EXPERIMENTAL CONTEXT: 31 g ai/ha, postemergence; visual rating, scale 0 to 100 (0 no effect, 100 complete control), 13 to 15 days
// return just the number, without any unit appended

The recorded Galium plant response rating for entry N#Cc1cnn(-c2c(C#N)cccc2Oc2ncc(Cl)cn2)c1 equals 60

Noted for Clc1cnc(Oc2ccccc2-n2cc(I)nn2)nc1 : its Galium plant response rating reads 85

According to the records, this compound O=Cc1cccc(Oc2ncc(I)cn2)c1-n1cc(Br)cn1 displays Galium plant response rating of 0

Lab note: measured Galium plant response rating of FC(F)c1cnn(-c2c(Br)cccc2Oc2ncc(Cl)cn2)c1 was 70

According to the records, this compound FC(F)c1cccc(Oc2ncc(Br)cn2)c1-n1cc(C(F)(F)F)cn1 displays Galium plant response rating of 50

Next compound, Galium plant response rating to be filled in.
Galium plant response rating recorded for this compound, N#Cc1cnn(-c2c(Oc3ncc(F)cn3)cccc2C(F)F)c1 , is 40

====

# Test system: wheat, winter
# ASSAY INFO: Test C postemergence
# Assay type: in vivo, Triticum aestivum
# EXPERIMENTAL CONTEXT: Postemergence, 31 g ai/ha; scale 0 to 100 (0 no effect, 100 complete control); 13 to 15 days
Each item that follows carries a reported Plant response rating, Wheat.
Keep the answer to the number alone.

# example entries with known answers
Lab entry: wheat, winter assay, molecule N#Cc1cccc(Oc2ncc(Br)cn2)c1-n1cc(Br)cn1 , Plant response rating, Wheat = 0

Value (Plant response rating, Wheat, wheat, winter) for record N#Cc1cccc(Oc2ncc(Cl)cn2)c1-n1cc(Cl)cn1 = 0

Record Fc1cnc(Oc2cccc(C(F)F)c2-n2cc(Cl)cn2)nc1 ; system wheat, winter; Plant response rating, Wheat = 0

Continuing:
Fill in: wheat, winter Plant response rating, Wheat for Cc1cnc(Oc2cccc(C#N)c2-n2cc(C#N)cn2)nc1 = 0

====

# Test system: giant foxtail
# ASSAY INFO: Test C preemergence
# Type: in vivo, Setaria faberii
# EXPERIMENTAL CONTEXT: 125 g ai/ha, preemergence; scale 0 (no effect) to 100 (complete control)
Listed here are compounds together with their documented Foxtail, Giant plant response rating.
Form rule: numeric answer, no unit written next to it.

# compound N#Cc1cn(-c2c(C#N)cccc2Oc2ncc(Cl)cn2)nn1 ; its Foxtail, Giant plant response rating = 90

response.value for NC(=S)c1cccc(Oc2ncc(Cl)cn2)c1-n1cc(Cl)cn1 (field: Foxtail, Giant plant response rating) = 100

Foxtail, Giant plant response rating for Cc1cnc(Oc2cccc(C#N)c2-n2cc(C(F)(F)F)cn2)nc1 is 100

---
So, N#Cc1cccc(Oc2ncc(Cl)cn2)c1-n1cc(OC(F)F)cn1 ? Its Foxtail, Giant plant response rating was 100

Value of measured Foxtail, Giant plant response rating for the entry N#Cc1cccc(Oc2ncc(Cl)cn2)c1-n1cc(Cl)cn1 : 100

Item: FC(F)c1cccc(Oc2ncc(Cl)cn2)c1-n1cc(C(F)(F)F)cn1 | Foxtail, Giant plant response rating: 100

====

# System: pigweed
# ASSAY INFO: Test C postemergence
# Assay type: in vivo, Amaranthus retroflexus
# EXPERIMENTAL CONTEXT: Postemergence, 62 g ai/ha; scale 0 to 100 (0 no effect, 100 complete control); 13 to 15 days
# Plant response rating, Pigweed per record follows
Format: numeric value only, no unit, no commentary.

The recorded Plant response rating, Pigweed with pigweed for N#Cc1cnn(-c2c(C#N)cccc2Oc2ncc(Cl)cn2)c1 was 90

Log: pigweed, compound FC(F)c1cnn(-c2c(Cl)cccc2Oc2ncc(Cl)cn2)c1 , Plant response rating, Pigweed = 80

Measured Plant response rating, Pigweed for this entry Clc1cnc(Oc2cccc(Cl)c2-n2cc(Cl)cn2)nc1 on pigweed: 85

***
The reported pigweed Plant response rating, Pigweed of FC(F)c1cnn(-c2c(Br)cccc2Oc2ncc(Cl)cn2)c1 is 60

====

# System: corn
# ASSAY INFO: Test A postemergence
# Type: in vivo, Zea mays
# EXPERIMENTAL CONTEXT: 31 g ai/ha, 0 to 100 scale, 0 no effect, 100 complete control
READOUT KIND: Plant response rating, Corn
Give your answer as a number; write no unit.

Previously resolved entries follow.
Tested on corn: FC(F)Oc1cnn(-c2c(Cl)cccc2Oc2ncc(Cl)cn2)c1 . Observed Plant response rating, Corn: 10

Test item FCc1cccc(Oc2ncc(Cl)cn2)c1-n1cc(I)cn1 ; corn; reported Plant response rating, Corn was 20

Plant response rating, Corn for corn with input Cc1cc(C(F)(F)F)nn1-c1ccccc1Oc1ncc(Cl)cn1 equals 0

Observed Plant response rating, Corn on corn, entry COc1cccc(Oc2ncc(Cl)cn2)c1-n1cc(Cl)cn1 , equals 0

Further cases:
Value (Plant response rating, Corn, corn) for record Clc1cnc(Oc2ccccc2-n2ccnc2)nc1 = 0

Summary: Fc1cccc(Oc2ncc(Cl)cn2)c1-n1cc(OC(F)F)cn1 , corn, Plant response rating, Corn = 20

====

# Test system: Brazilian crabgrass
# ASSAY INFO: Test E preemergence
# Assay type: in vivo, Digitaria horizontalis
# EXPERIMENTAL CONTEXT: 16 g ai/ha, scale 0 to 100 (0 no effect, 100 complete control)
READOUT KIND: Crabgrass, Brazil plant response rating

For Fc1cnc(Oc2cccc(C(F)F)c2-n2cc(C(F)(F)F)cn2)nc1 [Compound 164] the compound record lists Crabgrass, Brazil plant response rating as 0

Crabgrass, Brazil plant response rating for N#Cc1cccc(Oc2ncc(Cl)cn2)c1-n1cc(Br)cn1 [Compound 52] is 0

In plain terms, Cc1cnc(Oc2cccc(C#N)c2-n2cc(C#N)cn2)nc1 [Compound 90] has a documented Crabgrass, Brazil plant response rating of 0

Would you kindly look at the next entry?
Record N#Cc1cnn(-c2c(C#N)cccc2Oc2ncc(Cl)cn2)c1 [Compound 200] , field Crabgrass, Brazil plant response rating: 30
